The entries below come with measured IC50 values attached.
# tested system: human bradykinin B2 receptor (hB2R) (Homo sapiens)
# Sequence (P30411 whole entry): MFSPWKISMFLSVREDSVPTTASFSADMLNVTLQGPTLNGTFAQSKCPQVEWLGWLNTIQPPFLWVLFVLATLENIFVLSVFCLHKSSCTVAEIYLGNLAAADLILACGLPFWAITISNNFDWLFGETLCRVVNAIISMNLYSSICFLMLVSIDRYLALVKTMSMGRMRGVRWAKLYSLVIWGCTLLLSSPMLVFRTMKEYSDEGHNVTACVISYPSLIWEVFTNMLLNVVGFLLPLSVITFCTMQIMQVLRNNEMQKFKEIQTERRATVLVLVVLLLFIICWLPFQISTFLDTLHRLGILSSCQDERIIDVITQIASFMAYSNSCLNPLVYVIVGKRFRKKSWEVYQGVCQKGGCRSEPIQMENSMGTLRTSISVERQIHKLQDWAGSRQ
# experiment notes: cell-based human bradykinin B2 receptor calcium mobilization (hB2R-CaM) assay
# test context: HTS041C cells, bradykinin at EC80, calcium mobilization; read-out: IC50-value towards human bradykinin B2 receptor (hB2R)

Solved cases (6 shown):
compound	tested system	IC50
CCc1ncnn1-c1cc(C)nc2c(OCc3c(Cl)cc(F)cc3[C@H](C)NC(=O)COC(F)F)cccc12	human bradykinin B2 receptor (hB2R) (Homo sapiens)	≤ 50 nM
[2H][C@@](C)(NC(=O)COC(F)F)c1cc(F)cc(Cl)c1COc1cccc2c(-n3ncnc3C)cc(C)nc12	human bradykinin B2 receptor (hB2R) (Homo sapiens)	≤ 50 nM
Cc1cc(-n2cc(F)cn2)c2cccc(OCc3c(Cl)cc(F)cc3[C@H](C)N(C)C(=O)[C@H](C)Cl)c2n1	human bradykinin B2 receptor (hB2R) (Homo sapiens)	51 to 250 nM
Cc1cc(-n2cc(F)cn2)c2cccc(OCc3c(Cl)cc(F)cc3[C@H](C)N(C)C(=O)[C@H](C)O)c2n1	human bradykinin B2 receptor (hB2R) (Homo sapiens)	≤ 50 nM
COCCC(=O)N[C@@H](CO)c1cc(F)cc(Cl)c1COc1cccc2c(-n3cc(F)cn3)cc(C)nc12	human bradykinin B2 receptor (hB2R) (Homo sapiens)	≤ 50 nM
Cc1cc(-c2ncnn2C)c2cccc(OCc3c(Cl)cc(F)cc3[C@H](C)NC(=O)COCC3CC3)c2n1	human bradykinin B2 receptor (hB2R) (Homo sapiens)	≤ 50 nM

Continue with the molecule presented below.
Request: Returns the measured IC50 for the input molecule. Input: Cc1cc(-n2cc(F)cn2)c2cccc(OCc3c(Cl)cc(F)cc3[C@H](C)NC(=O)[C@@H](O)C(C)C)c2n1
Result: 51 to 250 nM

###

# tested system: human bradykinin B2 receptor (hB2R) (Homo sapiens)
# experiment notes: cell-based human bradykinin B2 receptor calcium mobilization (hB2R-CaM) assay
# test context: HTS041C cells, bradykinin at EC80, calcium mobilization; read-out: IC50-value towards human bradykinin B2 receptor (hB2R)
property label: IC50

compound	IC50
CC[C@@H](O)C(=O)N[C@@H](C)c1cc(F)cc(Cl)c1COc1cccc2c(-n3cnc(C)n3)cc(C)nc12	0.251 to 1 µM
CCOCC(=O)N[C@@H](C)c1cc(F)cc(Cl)c1COc1cccc2c(-c3ncnn3C)cc(C)nc12	≤ 0.05 µM
[2H][C@@](CO)(NC(=O)COC(F)F)c1cc(F)cc(Cl)c1COc1cccc2c(-c3ncnn3C)cc(C)nc12 [Compound 11B]	≤ 0.05 µM
[2H][C@@](C)(NC(=O)c1cocn1)c1cc(F)cc(Cl)c1COc1cccc2c(-c3ncnn3C)cc(C)nc12	≤ 0.05 µM
Cc1cc(-n2ncnc2C)c2cccc(OCc3c(Cl)cc(F)cc3[C@H](C)NC(=O)C(C)(F)F)c2n1	≤ 0.05 µM

Request: Returns the measured IC50 for the input compound. Input: Cc1cc(-n2ncc(F)c2C)c2cccc(OCc3c(Cl)cc(F)cc3[C@H](C)NC(=O)[C@@H](C)O)c2n1
Result: 0.051 to 0.25 µM

Request: Returns the measured IC50 for the input compound. Input: Cc1cc(-n2cc(F)cn2)c2cccc(OCc3c(Cl)cc(F)cc3[C@H](C)NC(=O)C(CO)CO)c2n1
Result: ≤ 0.05 µM

Request: Returns the measured IC50 for the input compound. Input: CC[C@H](NC(=O)c1coc(C)n1)c1cc(F)cc(Cl)c1COc1cccc2c(-c3ncnn3C)cc(C)nc12
Result: ≤ 0.05 µM

Request: Returns the measured IC50 for the input compound. Input: Cc1cc(-n2ncnc2C)c2cccc(OCc3c(Cl)cc(F)cc3[C@H](C)NC(=O)c3cnco3)c2n1
Result: ≤ 0.05 µM

Request: Returns the measured IC50 for the input compound. Input: Cc1cc(-n2ncnc2C)c2cccc(OCc3c(Cl)cc(F)cc3[C@H](C)NC(=O)COC(F)(F)F)c2n1
Result: ≤ 0.05 µM

Request: Returns the measured IC50 for the input compound. Input: Cc1cc(-n2nccn2)c2cccc(OCc3c(Cl)cc(F)cc3[C@H](C)NC(=O)[C@H](C)O)c2n1
Result: 0.051 to 0.25 µM

Request: Returns the measured IC50 for the input compound. Input: Cc1cc(-n2cc(F)cn2)c2cccc(OCc3c(Cl)cc(F)cc3[C@H](C)NC(=O)[C@H](O)C(C)C)c2n1
Result: 0.051 to 0.25 µM

Request: Returns the measured IC50 for the input compound. Input: COCC(=O)N[C@@H](C)c1cc(F)cc(Cl)c1COc1cccc2c(-n3cc(F)cn3)cc(C)nc12
Result: ≤ 0.05 µM

Request: Returns the measured IC50 for the input compound. Input: Cc1cc(-n2ncnc2C)c2cccc(OCc3c(Cl)cc(F)cc3[C@H](C)NC(=O)CC(F)F)c2n1
Result: ≤ 0.05 µM
